settings: 323.15 K; Liquid
± gives the expanded uncertainty stated by the source.
readout label: vapor or sublimation pressure
# include the unit after the value

Asked: Given the entry `CO` , report its measured vapor or sublimation pressure.
Given back: 55.61 ± 0.52 kPa

Asked: Can you check `O` next?
Given back: 12.35 ± 0.17 kPa

Asked: Thanks! And `CC(=O)O` ?
Given back: 7.72 ± 0.28 kPa

Asked: Now the same for COC(C)=O [methyl ethanoate]
Given back: 79.21 ± 0.71 kPa
